Data provenance is paper PMC7698842.

MEASUREMENT_PROTOCOL: Cytotoxicity toward Neuro-2a cells (MTT assay)
Assay type: cell-based, mouse
EXPERIMENTAL_CONDITIONS: mouse, Neuro-2a neuroblastoma cells; Neuro-2a cells, 24 h
IC50 at 24 h listing for selected compounds.
MEASUREMENT_KIND: IC50 at 24 h

• CC(C)=CCC[C@@H](C)[C@H]1CC[C@]23C(=O)O[C@]4(CC[C@]12C)[C@]31O[C@H]1C[C@H]1C(C)(C)[C@@H](O)CC[C@@]14C = > 100 µM
• CC(C)=CCC[C@@H](C)[C@H]1CC[C@@]2(C(=O)O)C3=C(CC[C@]12C)[C@@]1(C)CCC(=O)C(C)(C)[C@@H]1CC3 = > 100 µM
• CC(=O)O[C@H]1CC[C@@]2(C)[C@@H](C[C@@H]3O[C@]34[C@]23CC[C@]2(C)[C@@H]([C@H](C)CCC=C(C)C)CC[C@@]42C(=O)O3)C1(C)C = 85.7 µM
• CC(=O)O[C@H]1CC[C@]2(C)C3=C(CC[C@H]2C1(C)C)[C@]1(C(=O)O)CC[C@H]([C@H](C)CCC=C(C)C)[C@@]1(C)CC3 = > 100 µM
• CC(C)=CCC[C@@H](C)[C@H]1CC[C@@]2(C(=O)O)C3=C(CC[C@]12C)[C@@]1(C)CCC(=O)[C@@H](C)[C@@H]1CC3 = > 100 µM
